test: yeast display, Sf9 membrane polyspecificity reagent, FACS + sequencing; frameworks hold sequencing errors
endpointLabel: polyreactivity (PSR sort gate)

Below, 5 sequences whose answers are already recorded.
| orderedResidues | polyreactivity (PSR sort gate) |
| --- | --- |
| QVQLVESGGGLVQAGGSLRLSCAPSGRIFAGYTMGWYRQAPGKERELVAAISWSGGRTYYADSVKGRFTISRDNAKNTVYLQMNSLKPEDTAVYYCAKDGRYYSHYNYWGQGTQVTVSS | high polyreactivity |
| QVQLVESGGGLVQAGGSLRLSCAASGYTFLVNAMGWYRQAPGKERELVAAISSGGSTYYADSVKGRFTISRDNAKNTVYLQMNSLKPEDTAVYYCAAPTDFLFWEFDYWGQGTQVTVSS | low polyreactivity |
| QVQLVESGGGLVQAGGSLRLSCAASGRIFGWYAMGWYRQAPGKERELVAAIDGGDDSTYYADSVKGRFTISRDNAKNTVYLQMNSLKPEDTAVYYCAVVGYNWGQGSQVTVSS | low polyreactivity |
| QVQLVESGGGLVQAGGSLRLSCAASGRIFGVYTMGWSRQAPGKERELVAAITSGGNTNYADSVKGRFTISRDNAKNNVYLQMNSLKPEDTAVYYCAARSVRNFYYPGHNYRGQGTQVTVSS | low polyreactivity |
| QVQLVESGGGLVKEGGSLRLSCAASGNTIRVNAMGWYRQAPGKERELVAAISFSGGRTYYADSVKGRFTISRDNAKNTVYFQMNSLKPEDTGVYYCAALRRYPRPFIYGYWGQVTQVTVSS | low polyreactivity |

GET /values?readout=polyreactivity (PSR sort gate)&item= QVQLVESGGGLVQAGGSLRLSCAASGITVGDYAMGWYRQAPGKEREVVAAISYTGGSTYYADSVKGRFTISRDNAQNTGYLQMNSLKPEDTAVYYCAADGYRDYDSWGQGTQVTVSS
high polyreactivity

// lookup polyreactivity (PSR sort gate) for QVQLVESGGGLVQAGGSLRLSCADSGLTFIYYAMGWYRQAHGKERELVAAISSSGGRTYYADSVKGRFTISRDNAKNTVYLQMNSLKPEDTAVYYCATRYWTQSSSFDYWGQGTQVTVSS
high polyreactivity
